Field: pIC50. Provide a value for each of the molecules that follow.
- TESTED TARGET: pERK1/2 (Thr202/Tyr204), NCI-1H358 (KRAS G12C) (Homo sapiens, UniProt P01116, G12C)
- Construct: pERK1/2 HTRF read-out
- Sequence (P01116 1-188 isoform P01116-2 G12C): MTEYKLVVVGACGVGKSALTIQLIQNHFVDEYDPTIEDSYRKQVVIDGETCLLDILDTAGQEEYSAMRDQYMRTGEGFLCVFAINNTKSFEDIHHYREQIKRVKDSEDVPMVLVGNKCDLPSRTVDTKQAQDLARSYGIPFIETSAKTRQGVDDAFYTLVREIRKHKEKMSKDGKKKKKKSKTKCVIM
- METHOD: Assay of intracellular pERK1/2 (Thr202/Tyr204) phosphorylation in NCI-H358 cells (KRAS G12C)
- Type: cell-based
- SETUP CONDITIONS: pERK1/2, 2 days, read-out: NCI-H358 (KRAS G12C) IC50
The read-out pIC50 is expressed as -log10 of concentration in moles per litre.

Find the recorded pIC50 belonging to Cc1cc(N)cc(-c2nc3c4c(nc(OCC5CCOCC5)nc4c2F)N(C(C)c2cccnc2N)CCO3)c1C(F)(F)F (single isomer, unassigned) and report it. 7.59

Okay, and Cc1c(F)c(N)cc(-c2nc3c4c(nc(OC[C@@]56CCCN5C[C@H](F)C6)nc4c2F)N(Cc2cccnc2N)CCO3)c1C(F)(F)F ? 9.00

Okay, and C#Cc1c(F)ccc2cc(O)cc(-c3nc4c5c(nc(OC[C@@H]6C[C@@H](F)CN6C)nc5c3F)N(C(C)c3cccnc3N)[C@@H](C)CO4)c12 (single isomer, unassigned) [Compound 284] ? 9.70

Okay, and CC(c1cccnc1N)N1CCOc2nc(-c3cc(N)c(F)c(Cl)c3C(F)(F)F)c(F)c3nc(OCC45CC(F)CN4CC(F)C5)nc1c23 (single isomer, unassigned; diastereomer 2) [Compound 246] ? 9.40

Okay, and CC(c1cccnc1N)N1CCOc2nc(-c3cc(O)cc4ccc(F)c(F)c34)c(F)c3nc(OC[C@H]4COCCN4)nc1c23 (stereo partly shown) ? 7.27

Okay, and CC(c1cccnc1N)N1c2nc(OC[C@@]34CCCN3C[C@H](F)C4)nc3c(F)c(-c4c5c(cc6[nH]ncc46)CCC5(F)F)nc(c23)OC[C@@H]1C (stereo partly shown) ? 9.00

Okay, and Cc1cc2[nH]ncc2c(-c2nc3c4c(nc(OC[C@@]56CCCN5C[C@H](F)C6)nc4c2F)N(C(C)c2cccnc2N)[C@@H](C)CO3)c1C(F)(F)F (stereo partly shown) ? 9.52

Okay, and Cc1n[nH]c2cc3ccccc3c(-c3cc4nc(OC[C@@]56CCCN5C[C@H](F)C6)nc5c4c(n3)OC[C@H](C)N5C(C)c3cccnc3N)c12 (stereo partly shown) ? 9.40

Okay, and CC(c1cccnc1N)N1CCOc2nc(-c3cc(O)cc(Cl)c3C3CC3)c(F)c3nc(OC[C@@H]4CCN4CC(F)F)nc1c23 (stereo partly shown) [Compound 16] ? 8.70

---

Field: pIC50. Provide a value for each of the molecules that follow.
- TESTED TARGET: pERK1/2 (Thr202/Tyr204), NCI-1H358 (KRAS G12C) (Homo sapiens, UniProt P01116, G12C)
- Construct: pERK1/2 HTRF read-out
- METHOD: Assay of intracellular pERK1/2 (Thr202/Tyr204) phosphorylation in NCI-H358 cells (KRAS G12C)
- Format: cell-based
- SETUP CONDITIONS: pERK1/2, 2 days, read-out: NCI-H358 (KRAS G12C) IC50
pIC50: −log10 of the molar value.

Find the recorded pIC50 belonging to Cc1c(F)c(N)cc(-c2nc3c4c(nc(OC[C@@]56CCCN5C[C@H](F)C6)nc4c2F)N([C@@H](C)c2cc(F)cnc2N)[C@@H](C)CO3)c1C(F)(F)F and report it. < 7.00

Okay, and Cc1ccnc(N)c1C(C)N1CCOc2nc(-c3cc(N)c(F)c(C)c3C(F)(F)F)c(F)c3nc(OC[C@@]45CCCN4C[C@H](F)C5)nc1c23 (single isomer, unassigned) [Compound 258] ? < 7.00

Okay, and CC(c1cccnc1N)N1CCOc2nc(-c3cc(O)cc(F)c3C3CC3)c(F)c3nc(OC[C@@H]4CC(F)(F)CN4C)nc1c23 (single isomer, unassigned) [Compound 48] ? < 6.00

---

- TESTED TARGET: pERK1/2 (Thr202/Tyr204), PANC-1 (KRAS G121D) (Homo sapiens, UniProt P01116, G12D)
- Construct: pERK1/2 HTRF read-out
- Sequence (P01116 1-188 isoform P01116-2 G12D): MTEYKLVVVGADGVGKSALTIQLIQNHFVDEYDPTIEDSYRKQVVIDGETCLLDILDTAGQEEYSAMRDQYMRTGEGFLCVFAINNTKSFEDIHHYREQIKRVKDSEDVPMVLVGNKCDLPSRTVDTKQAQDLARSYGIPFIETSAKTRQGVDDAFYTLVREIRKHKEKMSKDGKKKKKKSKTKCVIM
- METHOD: Assay of intracellular pERK1/2 (Thr202/Tyr204) phosphorylation in PANC-1 cells (KRAS G12D)
- Type: cell-based
- SETUP CONDITIONS: pERK1/2, 2 days, read-out: PANC-1 (KRAS G12D) IC50
pIC50: −log10 of the molar value.
ENDPOINT: pIC50

Find the recorded pIC50 belonging to CC(c1cccnc1N)N1CCOc2nc(-c3cc(O)cc(Cl)c3C3CC3)c(F)c3nc(OC[C@@]45CCCN4C[C@H](F)C5)nc1c23 (single isomer, unassigned) [Compound 43] and report it. < 6.00

Okay, and Cc1c(F)c(N)cc(-c2nc3c4c(nc(OC[C@@]56CCCN5C[C@H](F)C6)nc4c2F)N(C2CC2)CCO3)c1C(F)(F)F ? < 7.00

Okay, and CC(c1cccnc1N)N1c2nc(OC[C@@]34CCCN3C[C@H](F)C4)nc3c(F)c(-c4cc(N)c(F)c(Cl)c4C(F)(F)F)nc(c23)OC[C@@H]1C (single isomer, unassigned) [Compound 272] ? < 7.00

Okay, and CC(c1cccnc1N)N1c2nc(OC[C@@]34CCCN3C[C@H](F)C4)nc3c(F)c(-c4cc5[nH]ncc5cc4C(F)(F)F)nc(c23)OC[C@@H]1C (stereo partly shown) ? < 7.00

Okay, and [2H]C([2H])(Oc1nc2c3c(nc(-c4cc(O)cc(Cl)c4C4CC4)c(F)c3n1)OCCN2[C@H](C)c1cccnc1N)[C@@H]1C[C@@H](F)CN1C([2H])([2H])[2H] (single isomer, unassigned) ? < 7.00

Okay, and [2H]C1([2H])Oc2nc(-c3cc(N)c(F)c(Cl)c3C(F)(F)F)c(F)c3nc(OC[C@@H]4C[C@@H](F)CN4C)nc(c23)N(C(C)c2cccnc2N)C1([2H])[2H] (single isomer, unassigned) [Compound 209] ? < 7.00

Okay, and Cc1cc(N)cc(-c2nc3c4c(nc(OCC5CCOCC5)nc4c2F)N(C(C)c2cccnc2N)CCO3)c1C(F)(F)F (single isomer, unassigned) ? < 7.00

Okay, and CC(c1cccnc1N)N1CCOc2nc(-c3cc(N)cc(F)c3C(F)(F)F)c(F)c3nc(OC[C@@H]4CCCN4C)nc1c23 (single isomer, unassigned) [Compound 91] ? < 7.00

Okay, and CC(c1cccnc1N)N1CCOc2nc(-c3cc(N)cc(F)c3C(F)(F)F)c(F)c3nc(OC[C@@]45CCCN4C[C@H](F)C5)nc1c23 (single isomer, unassigned) [Compound 89] ? < 7.00

Okay, and CC(c1cccnc1N)N1CCOc2nc(-c3nc(N)cc4ccccc34)c(F)c3nc(OC[C@@H]4CCCN4C)nc1c23 (stereo partly shown) ? < 6.00

---

Field: IC50. Provide a value for each of the molecules that follow.
- TESTED TARGET: pERK1/2 (Thr202/Tyr204), NCI-1H358 (KRAS G12C) (Homo sapiens, UniProt P01116, G12C)
- Construct: pERK1/2 HTRF read-out
- METHOD: Assay of intracellular pERK1/2 (Thr202/Tyr204) phosphorylation in NCI-H358 cells (KRAS G12C)
- Format: cell-based
- SETUP CONDITIONS: pERK1/2, 2 days, read-out: NCI-H358 (KRAS G12C) IC50

pERK1/2 (Thr202/Tyr204), NCI-1H358 (KRAS G12C) (Homo sapiens, UniProt P01116, G12C) / IC50 / CC(c1cccnc1N)N1CCOc2nc(-c3cc(N)cc(F)c3C(F)(F)F)c(F)c3nc(OC[C@@H]4CCCN4C)nc1c23 (single isomer, unassigned) [Compound 91] : value? > 100 nM

Okay, and CC(c1cccnc1N)N1c2nc(OC[C@@H]3C[C@@H](F)CN3C)nc3c(F)c(-c4cc(O)cc(Cl)c4C4CC4)nc(c23)OC[C@@H]1C (stereo partly drawn) [Compound 291] ? 0.1 nM

Okay, and Cc1cc2[nH]ncc2c(-c2nc3c4c(nc(OC[C@@]56CCCN5C[C@H](F)C6)nc4c2F)N(C(C)c2cccnc2N)[C@@H]2COCC[C@H]2O3)c1C(F)(F)F (stereo partly drawn) [Compound 392] ? > 100 nM

---

Field: pIC50. Provide a value for each of the molecules that follow.
- TESTED TARGET: pERK1/2 (Thr202/Tyr204), PANC-1 (KRAS G121D) (Homo sapiens, UniProt P01116, G12D)
- Construct: pERK1/2 HTRF read-out
- METHOD: Assay of intracellular pERK1/2 (Thr202/Tyr204) phosphorylation in PANC-1 cells (KRAS G12D)
- Type: cell-based
- SETUP CONDITIONS: pERK1/2, 2 days, read-out: PANC-1 (KRAS G12D) IC50
The read-out pIC50 is expressed as -log10 of concentration in moles per litre.

Find the recorded pIC50 belonging to Cc1c(C(F)(F)F)c(-c2nc3c4c(nc(OC[C@@]56CCCN5C[C@H](F)C6)nc4c2F)N(C(C)c2cccnc2N)[C@@H](C)CO3)c2cn[nH]c2c1F (stereo partly drawn) and report it. 9.52

Okay, and Cc1cc(N)cc(-c2nc3c4c(nc(OC[C@@]56CCCN5C[C@H](F)C6)nc4c2F)N(C(C)c2cccnc2N)CCO3)c1C1CC1 (stereo partly drawn) ? 7.80

Okay, and CC(c1cccnc1N)N1CCOc2nc(-c3cc(N)cc(Cl)c3C(F)(F)F)c(F)c3nc(OC[C@@H]4CCCN4C)nc1c23 (stereo partly drawn) [Compound 64] ? 7.64

Okay, and Cc1cc2[nH]nc(C)c2c(-c2nc3c4c(nc(OC[C@@]56CCCN5C[C@H](F)C6)nc4c2F)N(C(C)c2cccnc2N)[C@@H](C)CO3)c1C(F)(F)F (stereo partly drawn) [Compound 377] ? 8.70

Okay, and [2H]C1([2H])Oc2nc(-c3cc(N)c(F)c(Cl)c3C(F)(F)F)c(F)c3nc(OC[C@@H]4C[C@@H](F)CN4C)nc(c23)N(C(C)c2cccnc2N)C1([2H])[2H] (single isomer, unassigned) [Compound 208] ? 8.00

Okay, and CC(c1cccnc1N)N1CCOc2nc(-c3cc(O)cc(F)c3C3CC3)c(F)c3nc(OC[C@@H]4CC(F)(F)CN4C)nc1c23 (single isomer, unassigned) [Compound 49] ? 6.25
